All figures here come from ChEMBL document CHEMBL3988442.

- Tested on: Wolbachia pipientis
- assay name: Anti-Wolbachia Cell-Based Screen
- Format: functional
- Parameters: scale not given: in the data most compounds retested in dose-response had high values
- assay conditions: 5 µM
Screen size: about 48,000 compounds; about 13,000 (27%) showed an effect of 50% or more. This is one part of the list.
Items are presented alongside their recorded Percent Effect.
# unit: % | format: bare number

# count of solved cases: 4
compound=CO[C@H]1CC[C@H]2[C@H]1OCCN2CCOCc1ccccc1.O=C(O)C(F)(F)F measurement=-1.824
compound=O=C(O)C(F)(F)F.O=C1CCC2(CCN(c3ncc(F)cn3)CC2)N1Cc1ccncc1 measurement=-48.93
compound=CC(C)c1ncncc1C(=O)N1CCN(Cc2ccccn2)CC1 measurement=108.4
compound=CCc1ccc(C(=O)N2CCC3(CCC(=O)N(CCN(C)C)C3)CC2)[nH]1 measurement=-7.538

Turning now to a further compound:
q: Can you look up the measured Percent Effect of `CN(CC1CC1)c1ccc2ccc(C(=O)NCCc3ccccc3)cn12` for me?
a: 99.05

###

- System: Wolbachia pipientis
- assay name: Anti-Wolbachia Cell-Based Screen
- Assay type: functional
- Set-up: scale not given: in the data most compounds retested in dose-response had high values
- assay conditions: 5 µM
The whole screen tested about 48,000 compounds, of which about 13,000 (27%) showed an effect of 50% or more. This is one part of the list.
measure: Percent Effect (%)
# unit: % | format: bare number

# count of solved cases: 8
molecule=Cc1oc(C(=O)Nc2ccccc2F)cc1S(N)(=O)=O measure="Percent Effect" output_unit=% measurement=99.25
molecule=CCn1nc(C)cc1C(=O)NCc1nc(C)cc(C)n1 measure="Percent Effect" output_unit=% measurement=-9.292
molecule="Cc1cnn(C2CCCN(C(=O)CCNS(C)(=O)=O)C2)c1 (centres undefined)" measure="Percent Effect" output_unit=% measurement=109.1
molecule=CCc1ccc(S(=O)(=O)NCC2CCN(c3cnccn3)CC2)s1 measure="Percent Effect" output_unit=% measurement=118.2
molecule="COc1cccc(CCC(=O)N2CCCC(n3cc(C)cn3)C2)c1 (centres undefined)" measure="Percent Effect" output_unit=% measurement=-1.259
molecule=CCc1cnc2c(c1Nc1ccc3c(c1)OCO3)c(=O)n(C)c(=O)n2C measure="Percent Effect" output_unit=% measurement=105.3
molecule=CCOCC(=O)N1C[C@@H](O)[C@H](N2CCN(c3ccccc3)CC2)C1 measure="Percent Effect" output_unit=% measurement=110.9
molecule=O=S(=O)(NCC1CCN(c2cnccn2)CC1)c1cccs1 measure="Percent Effect" output_unit=% measurement=107.7

q: Can you look up the measured Percent Effect of Cn1cc(CN2CCOC3(CCCN(C(=O)c4ccco4)C3)C2)cn1.O=C(O)C(F)(F)F (centres undefined) for me?
a: -10.52

###

- Tested on: Wolbachia pipientis
- assay name: Anti-Wolbachia Cell-Based Screen
- Format: functional
- Set-up: scale not given: in the data most compounds retested in dose-response had high values
- assay conditions: 5 µM
About 13,000 (27%) of roughly 48,000 compounds showed an effect of 50% or more. The list shows a part of the results.
measure: Percent Effect (%)
# unit: % | format: bare number

compound=Cn1nc(CN2CCOCC2)c2c1CN(Cc1ccsc1)C2.O=C(O)C(F)(F)F.O=C(O)C(F)(F)F measurement=1.369
compound=Cn1cc(-c2cnc3n2CCC32CCN(S(=O)(=O)C3CC3)CC2)cn1.O=C(O)C(F)(F)F measurement=2.089

Turning now to a further compound:
q: Can you look up the measured Percent Effect of O=C(O)C(F)(F)F.O=C(O)C(F)(F)F.O=c1ccc2c(n1Cc1cccnc1)CCN(C1CCOC1)CC2 (stereo not given) for me?
a: 2.129
